target: Cyclophilin A (Homo sapiens, UniProt P62937); construct: made in house; assay: biochemical; format: binding
Sequence (P62937 whole entry, species assumed): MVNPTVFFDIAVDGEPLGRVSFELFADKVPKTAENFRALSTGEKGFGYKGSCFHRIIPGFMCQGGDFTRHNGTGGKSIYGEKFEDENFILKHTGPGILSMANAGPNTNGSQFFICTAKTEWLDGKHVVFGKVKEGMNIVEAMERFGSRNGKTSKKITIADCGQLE
Square brackets hold non-standard residues; d marks the D form. Peptide text beside a SMILES is read from it. MeBmt = C/C=C/C[C@@H](C)[C@@H](O)[C@H](NC)C(=O)O; NMeL = CN[C@@H](CC(C)C)C(=O)O; Tle = CC(C)(C)[C@H](N)C(=O)O; NMeNva = CCC[C@H](NC)C(=O)O; NMeV = CN[C@H](C(=O)O)C(C)C; NMeA = CN[C@@H](C)C(=O)O; Abu = CC[C@H](N)C(=O)O; Sar = CNCC(=O)O
Endpoint: % inhibition of CsA binding to Cyclophilin A (%)
API: value field is a number in %; no unit string.

Request: Report value only: % inhibition of CsA binding to Cyclophilin A, Cyclophilin A (Homo sapiens, UniProt P62937), C/C=C/C[C@@H](C)[C@@H](O)[C@H]1C(=O)N[C@@H](CC)C(=O)N(C)CC(=O)N(C)[C@@H](CCC)C(=O)N[C@@H](C(C)C)C(=O)N(C)[C@@H](CC(C)C)C(=O)N[C@@H](CC)C(=O)N[C@H](C)C(=O)N(C)[C@@H](CC(C)C)C(=O)N(C)[C@@H](CC(C)C)C(=O)N(C)[C@@H](C(C)C)C(=O)N1C [C102] (cyclo([Abu][Sar][NMeNva]V[NMeL][Abu][dA][NMeL][NMeL][NMeV][MeBmt]))
Result: 99.30

Request: Report value only: % inhibition of CsA binding to Cyclophilin A, Cyclophilin A (Homo sapiens, UniProt P62937), C/C=C/C[C@@H](C)[C@@H](O)[C@H]1C(=O)N[C@@H](CC)C(=O)N(C)CC(=O)N(C)[C@@H](C)C(=O)N[C@@H](C)C(=O)N(C)CC(=O)N[C@@H](C)C(=O)N[C@H](C)C(=O)N(C)[C@@H](CC(C)C)C(=O)N(C)[C@@H](CC(C)C)C(=O)N(C)[C@@H](C(C)C)C(=O)N1C [C18] (cyclo([MeBmt][Abu][Sar][NMeA]A[Sar]A[dA][NMeL][NMeL][NMeV]))
Result: 97.88

Request: Report value only: % inhibition of CsA binding to Cyclophilin A, Cyclophilin A (Homo sapiens, UniProt P62937), C/C=C/C[C@@H](C)[C@@H](O)[C@H]1C(=O)N[C@@H](CC)C(=O)N(C)CC(=O)N(C)[C@@H](CC(C)C)C(=O)N[C@@H](CC(C)C)C(=O)N(C)[C@@H](C)C(=O)N[C@@H](C)C(=O)N[C@H](C)C(=O)N(C)[C@@H](CC(C)C)C(=O)N(C)[C@@H](CC(C)C)C(=O)N(C)[C@@H](C(C)C)C(=O)N1C [C14] (cyclo([MeBmt][Abu][Sar][NMeL]L[NMeA]A[dA][NMeL][NMeL][NMeV]))
Result: 90.64

Request: Report value only: % inhibition of CsA binding to Cyclophilin A, Cyclophilin A (Homo sapiens, UniProt P62937), C/C=C/C[C@@H](C)[C@@H](O)[C@H]1C(=O)N[C@@H](CC)C(=O)N(C)CC(=O)N(C)[C@@H](C(C)C)C(=O)N[C@@H](C(C)(C)C)C(=O)N(C)[C@@H](C)C(=O)N[C@@H](CC(C)C)C(=O)N[C@H](C)C(=O)N(C)[C@@H](CC(C)C)C(=O)N(C)[C@@H](CC(C)C)C(=O)N(C)[C@@H](C(C)C)C(=O)N1C [C77] (cyclo([MeBmt][Abu][Sar][NMeV][Tle][NMeA]L[dA][NMeL][NMeL][NMeV]))
Result: 99.56
